Measurement kind: melting point

Below: 7 molecules and their reported melting point.
CC(C)(C)c1ccc(C2(COc3cccc4cc(NS(=O)(=O)C(F)(F)F)ccc34)N=CNO2)cc1 (centres unmarked) [Example 59] ... 154 to 155 °C
Cc1c(COc2cccc3cc(NS(=O)(=O)C(F)(F)F)ccc23)cccc1-c1ccccc1 [Example 23] ... 124 to 125 °C
CC(C)(C)c1ccc(-c2nc(COc3cccc4cc(NS(=O)(=O)C(F)(F)F)ccc34)cs2)cc1 [Example 47] ... 174 to 175 °C
O=S(=O)(Nc1ccc2c(OCc3nc(-c4ccc(F)cc4)sc3Br)cccc2c1)C(F)(F)F [Example 56] ... 139 to 140 °C
COc1ccc(-c2cc(COc3cccc4cc(NS(=O)(=O)C(F)(F)F)ccc34)ccc2F)cc1 [Example 26] ... 132 to 133 °C
O=S(=O)(Nc1ccc2c(OCc3csc(-c4ccc(F)cc4F)n3)cccc2c1)C(F)(F)F [Example 46] ... 191 to 192 °C
NC(=O)Nc1ccc2c(OCc3ccccc3-c3ccccc3)cccc2c1 [Example 74] ... 159 to 161 °C

Alright, here's another molecule for you.
Q. # get_value(readout='melting point', item= COc1ccc(C2(COc3cccc4cc(NS(=O)(=O)C(F)(F)F)ccc34)N=CNO2)cc1 (centres unmarked) [Example 64] )
A. 146 to 148 °C

* * *

Entries and their measured melting point follow.

O=S(=O)(Nc1ccc2c(OCc3ccc(-c4ccc(F)cc4)cc3F)cccc2c1)C(F)(F)F ... 134 to 136 °C
O=S(=O)(Nc1ccc2c(OCc3ccccc3-c3ccccc3)cccc2c1)C(F)(F)F ... 119 to 121 °C
O=S(=O)(Nc1ccc2c(OCc3ccc(-c4ccc(Cl)cc4)cc3Cl)cccc2c1)C(F)(F)F ... 176 to 178 °C
O=S(=O)(Nc1ccc2c(OCc3coc(-c4ccc(Br)cc4)n3)cccc2c1)C(F)(F)F ... 205 to 207 °C

Alright, here's another compound for you.
Q. # get_value(readout='melting point', item= COc1ccc(-c2nc(COc3cccc4cc(NS(=O)(=O)C(F)(F)F)ccc34)cs2)cc1 )
A. 151 to 152 °C

* * *

Entries and their measured melting point follow.

Below: 5 compounds and their reported melting point.
O=S(=O)(Nc1ccc2c(OCc3nc4ccccc4s3)cccc2c1)C(F)(F)F [Example 78] ... 190 to 192 °C
O=S(=O)(Nc1ccc2c(OCc3ccc(-c4ccc(Cl)cc4)cc3)cccc2c1)C(F)(F)F [Example 22] ... 131 to 133 °C
Cc1oc(-c2ccccc2)nc1COc1cccc2cc(NS(=O)(=O)C(F)(F)F)ccc12 [Example 79] ... 192 to 194 °C
Cc1ccccc1-c1nc(COc2cccc3cc(NS(=O)(=O)C(F)(F)F)ccc23)co1 [Example 88] ... 127 to 130 °C
CC(C)(C)c1ccc(-c2nc(COc3cccc4cc(NS(=O)(=O)C(F)(F)F)ccc34)co2)cc1 [Example 85] ... 165 to 167 °C

Q. # get_value(readout='melting point', item= O=S(=O)(Nc1ccc2c(OCc3ccc(-c4ccccn4)cc3)cccc2c1)C(F)(F)F [Example 24] )
A. 119 to 120 °C

Q. Same again, this time with N#Cc1ccc(C2(COc3cccc4cc(NS(=O)(=O)C(F)(F)F)ccc34)N=CNO2)cc1 (stereo not shown) [Example 61]
A. 184 to 185 °C
